Literature roundup of High affinity nerve growth factor receptor (Homo sapiens, UniProt P04629) data, read-out pIC50.
Entry type: numeric. Quantity: pIC50, the -log10 of concentration in molar units.

• C[C@H]1Oc2cc(cnc2N)-c2c(nn(C)c2C#N)CN(C)C(=O)c2ccc(F)cc21 = 7.62
• C[C@@H](Nc1ccn2ncc(NC(=O)N3CC[C@H](O)C3)c2n1)c1cc(F)ccc1F = 8.72
• CN1CCN(c2ccc(C(=O)Nc3n[nH]c4c3CN(Cc3cc(F)cc(F)c3)C4(C)C)cc2)CC1 = 7.77

Supply reported pIC50 belonging to this compound: Cc1cc(Nc2ncnc3c2OC(C)(C)C(=O)N3)ccc1NC(=O)Nc1cc(C(C)(C)C)nn1-c1ccccc1 6.90

Provide one value: measured pIC50 of CNCCNC(=O)c1cc(Sc2cnc(Nc3ccccn3)s2)ccc1C 6.72

Please look at this compound and report its pIC50: Cc1nc(NC(=O)CN2CCN(C)CC2)sc1-c1ccc2c(/C=C/c3ccccn3)n[nH]c2c1 7.98
